Target: USP19 (UniProt O94966)
Sequence (O94966 whole entry, the tested form may be a part): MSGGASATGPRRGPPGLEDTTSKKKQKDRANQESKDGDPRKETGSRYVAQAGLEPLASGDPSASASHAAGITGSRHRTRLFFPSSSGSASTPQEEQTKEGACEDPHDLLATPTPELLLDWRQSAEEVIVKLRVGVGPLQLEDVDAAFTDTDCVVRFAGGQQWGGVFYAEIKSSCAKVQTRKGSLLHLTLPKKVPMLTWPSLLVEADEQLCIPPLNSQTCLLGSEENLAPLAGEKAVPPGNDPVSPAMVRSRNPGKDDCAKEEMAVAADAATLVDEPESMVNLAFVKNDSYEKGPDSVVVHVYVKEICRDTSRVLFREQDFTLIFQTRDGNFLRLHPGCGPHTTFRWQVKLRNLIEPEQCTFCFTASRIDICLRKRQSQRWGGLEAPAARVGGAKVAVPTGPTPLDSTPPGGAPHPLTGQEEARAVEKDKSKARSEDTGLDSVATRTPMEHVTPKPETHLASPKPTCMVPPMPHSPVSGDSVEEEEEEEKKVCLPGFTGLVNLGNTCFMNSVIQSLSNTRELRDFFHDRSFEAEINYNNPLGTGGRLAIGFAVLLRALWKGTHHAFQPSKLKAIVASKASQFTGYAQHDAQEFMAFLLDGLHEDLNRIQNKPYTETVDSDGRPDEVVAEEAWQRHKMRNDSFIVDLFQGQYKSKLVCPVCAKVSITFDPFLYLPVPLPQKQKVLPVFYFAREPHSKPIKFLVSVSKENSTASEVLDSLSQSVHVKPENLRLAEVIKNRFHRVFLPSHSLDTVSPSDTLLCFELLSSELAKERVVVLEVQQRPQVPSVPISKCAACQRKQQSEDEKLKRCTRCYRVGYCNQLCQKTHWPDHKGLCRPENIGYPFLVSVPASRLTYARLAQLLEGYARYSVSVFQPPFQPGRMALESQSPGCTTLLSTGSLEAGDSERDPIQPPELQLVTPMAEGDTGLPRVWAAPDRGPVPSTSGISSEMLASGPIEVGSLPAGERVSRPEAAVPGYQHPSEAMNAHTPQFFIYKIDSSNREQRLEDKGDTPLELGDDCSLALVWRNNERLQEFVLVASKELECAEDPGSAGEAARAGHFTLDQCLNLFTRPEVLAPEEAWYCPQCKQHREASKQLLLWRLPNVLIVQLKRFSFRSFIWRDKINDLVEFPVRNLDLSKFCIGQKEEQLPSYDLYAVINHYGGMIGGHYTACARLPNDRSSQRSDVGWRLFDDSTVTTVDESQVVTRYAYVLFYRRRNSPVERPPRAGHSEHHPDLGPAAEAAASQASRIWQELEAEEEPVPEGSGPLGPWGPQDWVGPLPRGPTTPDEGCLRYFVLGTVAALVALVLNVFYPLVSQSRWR
Assay: log2 ratio of Biotin-Ahx-Ub-VS probe labelling (fragment/DMSO); higher = less target engagement (more negative = stronger competition), active = hit call of the paper (q ≤ 0.05, log2 ratio ≤ -1)
Settings: compound concentration: 200 uM; treatment time: 3 h
Lab note: assign the record to one of Yes for active, No for inactive

Please review the entries below; each comes with its answer.
1. O=C(CCl)Nc1cc(Cl)ccc1-n1cncn1 | No
2. O=C(CCl)N1CC=C(c2c[nH]c3ccccc23)CC1 | Yes
3. O=C(O)C1Cc2ccccc2CN1C(=O)CCl (stereo not drawn) | No

What is the recorded call for this compound in the test? O=C(CCl)N1c2ccccc2NC(=O)C12CCCC2
No

Lab log entry: CN(C)C(=O)c1ccc(CNC(=O)CCl)cc1 — outcome as called in the assay?
No

Could you check what this test reported for O=C(CCl)Nc1cc2c(cc1Cl)OCCCO2 ?
No

Hi, do you know how CCN1C(=O)C2CN(C(=O)CCl)CCN2C1=O (stereo not drawn) came out in this test?
No

Called result for Cl.O=C(CCl)NCc1ccnc(Oc2ccccc2F)c1
No

Hello, I am checking results. What call was entered for O=C(CCl)NCCC1=CCCCC1 ?
No

Fill in: this test's call for O=C(CCl)N1CCN(C(=O)N2CCCCC2)CC1 is ___
No

What is the recorded call for this compound in the test? COc1ccc(C2CCCN2C(=O)CCl)c(OC)c1 (stereo not drawn)
No

// outcome(item) with item = Cc1cccnc1NC(=O)C1CCN(C(=O)CCl)CC1.Cl
No

---

Each entry below carries its recorded log2 ratio of Biotin-Ahx-Ub-VS probe labelling.
Target: USP34 (UniProt Q70CQ2)
Assay: log2 ratio of Biotin-Ahx-Ub-VS probe labelling (fragment/DMSO); higher = less target engagement (more negative = stronger competition), active = hit call of the paper (q ≤ 0.05, log2 ratio ≤ -1)
Conditions: compound concentration: 200 uM; treatment time: 3 h

Use the examples below as a reference point.
1) COCC1C=CCCN1C(=O)CCl (centres undefined) | -0.0902 (inactive)
2) O=C(CCl)N[C@H]1CC[C@@H](CO)CC1 | -0.402 (inactive)
3) Cl.Cn1nc2c(c1CNC(=O)CCl)CCCC2 | -0.177 (inactive)
4) Cc1cc(NC(=O)CCl)n(-c2ccccc2)n1 | -0.374 (inactive)

Which log2 ratio of Biotin-Ahx-Ub-VS probe labelling is reported for this molecule? Cl.O=C(CCl)N1CCn2ncc(O)c2C1
-0.237 (inactive)

Form field: reported log2 ratio of Biotin-Ahx-Ub-VS probe labelling of O=C(CCl)Nc1ccc(F)cc1Cl
-0.452 (inactive)

---

# log2 ratio of Biotin-Ahx-Ub-VS probe labelling per entry
Target: UniProt Q5T2D3
Sequence (Q5T2D3 whole entry, the tested form may be a part): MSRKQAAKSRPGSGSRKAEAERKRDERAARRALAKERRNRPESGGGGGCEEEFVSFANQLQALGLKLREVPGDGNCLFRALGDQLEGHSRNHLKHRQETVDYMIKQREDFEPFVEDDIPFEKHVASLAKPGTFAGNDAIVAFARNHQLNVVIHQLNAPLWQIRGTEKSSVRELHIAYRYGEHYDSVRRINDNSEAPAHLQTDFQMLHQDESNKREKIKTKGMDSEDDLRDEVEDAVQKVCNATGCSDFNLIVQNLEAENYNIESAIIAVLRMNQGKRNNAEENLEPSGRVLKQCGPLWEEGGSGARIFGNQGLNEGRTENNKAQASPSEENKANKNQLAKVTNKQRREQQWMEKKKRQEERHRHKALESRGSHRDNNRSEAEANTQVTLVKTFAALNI
Assay: log2 ratio of Biotin-Ahx-Ub-VS probe labelling (fragment/DMSO); higher = less target engagement (more negative = stronger competition), active = hit call of the paper (q ≤ 0.05, log2 ratio ≤ -1)
Conditions: compound concentration: 200 uM; treatment time: 3 h

1) O=C(CCl)NC1CCS(=O)(=O)c2ccccc21 (centres undefined) | -0.342 (inactive)

Now turn to the next compound.
Name the recorded log2 ratio of Biotin-Ahx-Ub-VS probe labelling for O=C(CCl)N1CCOC2(CCC2)C1 .
0.00991 (inactive)

---

// log2 ratio of Biotin-Ahx-Ub-VS probe labelling lookup, one value per entry
Target: USP48 (UniProt Q86UV5)
Sequence (Q86UV5 whole entry, the tested form may be a part): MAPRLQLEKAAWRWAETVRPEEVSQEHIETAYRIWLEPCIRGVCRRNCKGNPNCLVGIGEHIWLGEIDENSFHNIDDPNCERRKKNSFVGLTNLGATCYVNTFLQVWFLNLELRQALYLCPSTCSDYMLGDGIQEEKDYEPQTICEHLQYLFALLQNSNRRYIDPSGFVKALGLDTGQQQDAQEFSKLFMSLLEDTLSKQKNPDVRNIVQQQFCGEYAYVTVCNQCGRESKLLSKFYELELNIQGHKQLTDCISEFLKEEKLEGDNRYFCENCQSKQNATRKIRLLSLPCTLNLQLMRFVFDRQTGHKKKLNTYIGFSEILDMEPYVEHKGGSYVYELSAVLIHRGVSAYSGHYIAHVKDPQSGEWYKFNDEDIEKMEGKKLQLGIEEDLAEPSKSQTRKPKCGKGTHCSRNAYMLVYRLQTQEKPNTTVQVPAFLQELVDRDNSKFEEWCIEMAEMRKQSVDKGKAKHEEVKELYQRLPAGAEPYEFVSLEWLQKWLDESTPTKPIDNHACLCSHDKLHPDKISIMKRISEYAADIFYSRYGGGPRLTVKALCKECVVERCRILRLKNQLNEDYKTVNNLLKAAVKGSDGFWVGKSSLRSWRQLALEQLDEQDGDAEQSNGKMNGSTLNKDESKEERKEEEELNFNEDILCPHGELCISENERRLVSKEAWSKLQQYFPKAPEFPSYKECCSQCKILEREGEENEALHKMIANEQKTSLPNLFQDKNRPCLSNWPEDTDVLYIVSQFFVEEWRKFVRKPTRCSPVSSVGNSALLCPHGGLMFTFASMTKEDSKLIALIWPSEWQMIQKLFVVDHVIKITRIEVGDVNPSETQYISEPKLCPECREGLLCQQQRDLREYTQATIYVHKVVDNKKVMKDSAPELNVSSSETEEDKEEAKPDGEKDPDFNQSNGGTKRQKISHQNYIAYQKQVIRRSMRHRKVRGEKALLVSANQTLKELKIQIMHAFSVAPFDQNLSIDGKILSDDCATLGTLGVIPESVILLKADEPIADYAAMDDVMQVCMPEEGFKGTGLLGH
Test: log2 ratio of Biotin-Ahx-Ub-VS probe labelling (fragment/DMSO); higher = less target engagement (more negative = stronger competition), active = hit call of the paper (q ≤ 0.05, log2 ratio ≤ -1)
Conditions: compound concentration: 200 uM; treatment time: 3 h
API note: the answer field is a bare number with no unit suffix.

Record excerpt, results attached:
1. Cl.O=C(CCl)N1CCCC(c2ncc[nH]2)C1 (centres undefined) | -0.331
2. Cc1ccc(N2CCC(NC(=O)CCl)C2=O)cc1 (centres undefined) | 0.139
3. Cc1nc(CNC(=O)CCl)c2ccccn12.Cl | 0.164
4. O=C(CCl)NC1CCOc2ccccc21 (centres undefined) | -0.603

So what does the record say about log2 ratio of Biotin-Ahx-Ub-VS probe labelling for O=C(CN1CCN(C(=O)CCl)CC1)Nc1cccc(F)c1 ?
-0.419

Using the record for COc1ccc(Cl)cc1NC(=O)CCl , report its log2 ratio of Biotin-Ahx-Ub-VS probe labelling.
-0.394

Fill in: log2 ratio of Biotin-Ahx-Ub-VS probe labelling of Cc1ccc(CNC(=O)CCl)nc1C.Cl is ___
-0.13

If you can, please state the reported log2 ratio of Biotin-Ahx-Ub-VS probe labelling value of Cc1ccn2cc(CNC(=O)CCl)nc2c1.Cl .
-0.153

Sample Cl.O=C(CCl)NCc1ccnc(Oc2ccccc2F)c1 — what was its log2 ratio of Biotin-Ahx-Ub-VS probe labelling?
-0.278

---

Molecular target: ATXN3 (UniProt P54252)
Sequence (P54252 whole entry, the tested form may be a part): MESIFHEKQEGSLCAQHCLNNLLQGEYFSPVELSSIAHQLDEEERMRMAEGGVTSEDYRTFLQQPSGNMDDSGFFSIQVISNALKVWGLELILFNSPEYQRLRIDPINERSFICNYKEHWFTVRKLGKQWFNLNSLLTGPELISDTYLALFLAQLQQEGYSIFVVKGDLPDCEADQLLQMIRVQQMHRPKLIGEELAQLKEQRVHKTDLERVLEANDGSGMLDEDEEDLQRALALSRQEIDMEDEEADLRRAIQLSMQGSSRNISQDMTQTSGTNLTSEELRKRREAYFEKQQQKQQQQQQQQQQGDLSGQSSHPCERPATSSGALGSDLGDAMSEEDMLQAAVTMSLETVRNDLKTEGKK
Experiment: log2 ratio of Biotin-Ahx-Ub-VS probe labelling (fragment/DMSO); higher = less target engagement (more negative = stronger competition), active = hit call of the paper (q ≤ 0.05, log2 ratio ≤ -1)
Conditions: compound concentration: 200 uM; treatment time: 3 h
Documented log2 ratio of Biotin-Ahx-Ub-VS probe labelling across a set of molecules
Format: numeric value only, no unit, no commentary.

Sample answers from the record:
1) O=C(CCl)N1c2ccccc2NC(=O)C12CCCC2 | -0.311
2) Cl.O=C(CCl)N1CCCC(c2ncc[nH]2)C1 (stereo not drawn) | -0.259
3) Cc1nnc(C(NC(=O)CCl)c2ccccc2)n1C (stereo not drawn) | 0.355
4) Cc1cccc(NC(=O)[C@@H]2CCCN2C(=O)CCl)n1 | -0.532
5) Cc1ccc(N2CCC(NC(=O)CCl)C2=O)cc1 (stereo not drawn) | -0.0941
6) CN(CCc1ncc(Br)cn1)C(=O)CCl.Cl | -0.617

Record request: log2 ratio of Biotin-Ahx-Ub-VS probe labelling value, item Cc1n[nH]c(=O)c2c(NC(=O)CCl)oc(C)c12
0.117

Item under review: CNC(=O)C1(NC(=O)CCl)CCCCC1 . Reported log2 ratio of Biotin-Ahx-Ub-VS probe labelling?
-0.161

// returns reported log2 ratio of Biotin-Ahx-Ub-VS probe labelling for input Cl.Cn1nccc1C(NC(=O)CCl)c1ccccc1 (stereo not drawn)
-0.49

# log2 ratio of Biotin-Ahx-Ub-VS probe labelling lookup, item O=C(CCl)N1CCN(C(=O)N2CCCCC2)CC1
-1.81

Which log2 ratio of Biotin-Ahx-Ub-VS probe labelling reading was recorded for the molecule Cc1cccc(NC(=O)CCl)c1C ?
-0.243

So what's the measured log2 ratio of Biotin-Ahx-Ub-VS probe labelling for this one? O=C(CCl)N1CCc2nc[nH]c2C1c1ccc(Cl)cc1 (stereo not drawn)
-0.508

Which log2 ratio of Biotin-Ahx-Ub-VS probe labelling value belongs to Cc1cccc(C)c1NC(=O)CCl ?
-0.224

---

Target: YOD1 (UniProt Q5VVQ6)
Sequence (whole entry): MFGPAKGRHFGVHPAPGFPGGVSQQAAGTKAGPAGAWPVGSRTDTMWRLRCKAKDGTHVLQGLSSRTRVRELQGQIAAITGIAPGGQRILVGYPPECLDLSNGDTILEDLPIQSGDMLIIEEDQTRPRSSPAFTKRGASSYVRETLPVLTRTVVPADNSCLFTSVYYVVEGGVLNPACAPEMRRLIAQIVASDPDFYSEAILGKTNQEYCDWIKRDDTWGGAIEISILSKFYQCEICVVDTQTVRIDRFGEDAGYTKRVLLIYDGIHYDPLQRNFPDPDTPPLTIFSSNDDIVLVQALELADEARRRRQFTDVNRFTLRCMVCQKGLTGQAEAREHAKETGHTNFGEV
Test: log2 ratio of Biotin-Ahx-Ub-VS probe labelling (fragment/DMSO); higher = less target engagement (more negative = stronger competition), active = hit call of the paper (q ≤ 0.05, log2 ratio ≤ -1)
Conditions: compound concentration: 200 uM; treatment time: 3 h
reported_property: log2 ratio of Biotin-Ahx-Ub-VS probe labelling
Lab note: record the figure alone, no unit after it.

# query: log2 ratio of Biotin-Ahx-Ub-VS probe labelling of entry O=C(CCl)N1CCc2[nH]c3ccccc3c2C1
-0.2

Look up log2 ratio of Biotin-Ahx-Ub-VS probe labelling for this compound: O=C(CCl)NCC(=O)N1CCCC1
-0.225

GET /values?readout=log2 ratio of Biotin-Ahx-Ub-VS probe labelling&item= Cc1cnc2[nH]cc(CCNC(=O)CCl)c2c1
-0.097

Can you share its log2 ratio of Biotin-Ahx-Ub-VS probe labelling? I mean this compound: N#Cc1ccccc1N1CCN(C(=O)CCl)CC1
-0.448

// lookup log2 ratio of Biotin-Ahx-Ub-VS probe labelling for N#Cc1ccc(CNC(=O)CCl)cc1
-0.136

For the compound shown here, Cl.O=C(CCl)N1CCc2ncncc2C1 , give the reported log2 ratio of Biotin-Ahx-Ub-VS probe labelling.
0.055

Quick one: log2 ratio of Biotin-Ahx-Ub-VS probe labelling for O=C(CCl)Nc1cc2c(cc1Cl)OCCO2 ?
0.302
